Test system: plasma cholesterol concentrations
Assay Method Text: Inhibition of increases in plasma cholesterol in cholesterol-fed rats
Type: in vivo
Settings: diet supplemented by 0.03% w/w of test compound, measured after 3 days, relative to control animals
Label Yes when In-vivo % Inhibition is at or above 60%; otherwise label No.

Use these answered entries as a reference point.
[
  {
    "Smiles Text": "Cc1nccn1CCCSc1nc(-c2ccccc2)c(-c2ccccc2)[nH]1",
    "Assigned Category": "Yes"
  },
  {
    "Smiles Text": "Cc1nccn1CCCCSc1nc(-c2ccccc2)c(-c2ccccc2)[nH]1",
    "Assigned Category": "No"
  },
  {
    "Smiles Text": "c1ccc(-c2nc(SCCCCCn3cncn3)[nH]c2-c2ccccc2)cc1",
    "Assigned Category": "Yes"
  },
  {
    "Smiles Text": "Cl.Cn1ccnc1CSc1nc(-c2ccccc2)c(-c2ccccc2)[nH]1",
    "Assigned Category": "No"
  },
  {
    "Smiles Text": "c1ccc(-c2nc(SCCCCn3cncn3)[nH]c2-c2ccccc2)cc1",
    "Assigned Category": "No"
  }
]

Determine whether measured In-vivo % Inhibition meets or exceeds 60% for c1ccc(-c2nc(SCCCCn3cnnn3)[nH]c2-c2ccccc2)cc1
No

----------
Tested on: acyl coenzyme-A:cholesterol-O-acyl transferase (ACAT; EC 2.3.1.26)
Assay Method Text: ACAT inhibition in rat liver microsomes incubated with radiolabelled oleoyl-CoA
Format: biochemical
Settings: liver microsomes of rats fed 0.5%w/w cholesterol and 0.25%w/w cholic acid for 7 days, compound at 0.5»g/ml
The label depends only on In-vitro % Inhibition at 0.5»g/ml: satisfied if it is at least 80%, not satisfied if it is smaller.

Worked set:
[
  {
    "Molecule": "c1ccc(-c2nc(SCCCCn3cnnn3)[nH]c2-c2ccccc2)cc1 [Compound 1S]",
    "Assigned Category": "satisfied"
  },
  {
    "Molecule": "Cc1nccn1CCCCSc1nc(-c2ccccc2)c(-c2ccccc2)[nH]1 [Compound 1M]",
    "Assigned Category": "satisfied"
  },
  {
    "Molecule": "c1ccc(-c2nc(SCCCCn3ncnn3)[nH]c2-c2ccccc2)cc1 [Compound 1T]",
    "Assigned Category": "not satisfied"
  }
]

Record c1ccc(-c2nc(SCCCn3ccnc3-c3ccccc3)[nH]c2-c2ccccc2)cc1 [Compound 1N] ; criterion: In-vitro % Inhibition at 0.5»g/ml no lower than 80%. Met?
not satisfied

Try the molecule Cc1cc(C)n(CCCSc2nc(-c3ccccc3)c(-c3ccccc3)[nH]2)n1 [Compound 1P]
satisfied

----------
Test system: acyl coenzyme-A:cholesterol-O-acyl transferase (ACAT; EC 2.3.1.26)
Assay Method Text: ACAT inhibition in rat liver microsomes incubated with radiolabelled oleoyl-CoA
Format: biochemical
Settings: liver microsomes of rats fed 0.5%w/w cholesterol and 0.25%w/w cholic acid for 7 days, compound at 1»g/ml
The following compounds are shown together with reported In-vitro % Inhibition at 1»g/ml values.
Write the number in % without appending the unit.

Recorded In-vitro % Inhibition at 1»g/ml, per entry:
[
  {
    "Compound": "c1ccc(-c2nc(SCCCn3cnnn3)[nH]c2-c2ccccc2)cc1 [Compound 1Q]",
    "Study Target": "acyl coenzyme-A:cholesterol-O-acyl transferase (ACAT; EC 2.3.1.26)",
    "Measured Property": "In-vitro % Inhibition at 1»g/ml",
    "Observed Value": 88
  },
  {
    "Compound": "c1ccc(-c2nc(SCCCCCn3cncn3)[nH]c2-c2ccccc2)cc1 [Compound 1F]",
    "Study Target": "acyl coenzyme-A:cholesterol-O-acyl transferase (ACAT; EC 2.3.1.26)",
    "Measured Property": "In-vitro % Inhibition at 1»g/ml",
    "Observed Value": 92
  },
  {
    "Compound": "c1ccc(-c2nc(SCc3ccncc3)[nH]c2-c2ccccc2)cc1 [Compound 1U]",
    "Study Target": "acyl coenzyme-A:cholesterol-O-acyl transferase (ACAT; EC 2.3.1.26)",
    "Measured Property": "In-vitro % Inhibition at 1»g/ml",
    "Observed Value": 71
  }
]

Which value of In-vitro % Inhibition at 1»g/ml has been reported for c1ccc(-c2nc(SCCCCn3cncn3)[nH]c2-c2ccccc2)cc1 [Compound 1E] in the records?
86

----------
Listed here: items and their measured In-vitro % Inhibition at 1»g/ml.
Test system: acyl coenzyme-A:cholesterol-O-acyl transferase (ACAT; EC 2.3.1.26)
Assay Method Text: ACAT inhibition in rat liver microsomes incubated with radiolabelled oleoyl-CoA
Type: biochemical
Settings: liver microsomes of rats fed 0.5%w/w cholesterol and 0.25%w/w cholic acid for 7 days, compound at 1»g/ml
Please reply with the bare figure in % and do not write the unit itself.

Below, 5 compounds whose answers are already recorded.
[
  {
    "Compound": "c1ccc(Cn2ccnc2CSc2nc(-c3ccccc3)c(-c3ccccc3)[nH]2)cc1",
    "In-vitro % Inhibition at 1»g/ml, %": 57
  },
  {
    "Compound": "c1ccc(-c2nc(SCCCn3cccn3)[nH]c2-c2ccccc2)cc1",
    "In-vitro % Inhibition at 1»g/ml, %": 83
  },
  {
    "Compound": "CC(Sc1nc(-c2ccccc2)c(-c2ccccc2)[nH]1)n1ccnc1 (racemic)",
    "In-vitro % Inhibition at 1»g/ml, %": 53
  },
  {
    "Compound": "Cn1ccnc1CSc1nc(-c2ccccc2)c(-c2ccccc2)[nH]1",
    "In-vitro % Inhibition at 1»g/ml, %": 85
  },
  {
    "Compound": "c1ccc(-c2nc(SCCCn3ncnn3)[nH]c2-c2ccccc2)cc1",
    "In-vitro % Inhibition at 1»g/ml, %": 80
  }
]

Recorded In-vitro % Inhibition at 1»g/ml of c1ccc(-c2nc(SCCn3cncn3)[nH]c2-c2ccccc2)cc1 , please.
88

Same lookup for c1ccc(-c2nc(SCCCn3cncn3)[nH]c2-c2ccccc2)cc1 , please.
84

Try this compound too: c1ccc(-c2nc(SCCCn3ccnc3)[nH]c2-c2ccccc2)cc1
80

Okay, and c1ccc(-c2nc(SCCn3ccnc3)[nH]c2-c2ccccc2)cc1 ?
86

----------
Test system: acyl coenzyme-A:cholesterol-O-acyl transferase (ACAT; EC 2.3.1.26)
Assay Method Text: ACAT inhibition in rat liver microsomes incubated with radiolabelled oleoyl-CoA
Assay type: biochemical
Settings: liver microsomes of rats fed 0.5%w/w cholesterol and 0.25%w/w cholic acid for 7 days, compound at 1»g/ml
Measured Property: In-vitro % Inhibition at 1»g/ml
I'd appreciate it if you included the unit after the number.

# example entries with known answers
[
  {
    "Smiles Text": "Cc1nccn1CCCSc1nc(-c2ccccc2)c(-c2ccccc2)[nH]1",
    "Measured Property": "In-vitro % Inhibition at 1»g/ml",
    "Observed Value": "90%"
  },
  {
    "Smiles Text": "c1ccc(-c2nc(SCCCCCCn3cncn3)[nH]c2-c2ccccc2)cc1",
    "Measured Property": "In-vitro % Inhibition at 1»g/ml",
    "Observed Value": "91%"
  }
]

Shifting focus to the molecule that follows.
Look up In-vitro % Inhibition at 1»g/ml for this molecule: Cl.Cn1ccnc1CSc1nc(-c2ccccc2)c(-c2ccccc2)[nH]1
82%
